Test system: SNB-75 CNS
Assay: NCI-60 one-dose screen, 48 h
Conditions: 10 µM unless noted
About 83,000 compounds went through this panel and 20% of them were active in at least one assay; those are over-represented in the sample as a whole. Calls of active or inactive are those of the source. The calls were made as follows: active = growth percent below 10; inactive = the rest.
Outcome codes: 1 = active, 0 = inactive

- Compound: "COc1cc(C(=O)/C=C/c2c(-c3cccs3)nc3sccn23)cc(OC)c1OC"
  Classification: 1
- Compound: "Cc1ccccc1-n1nnc(C(=O)Nc2ccc(-c3ccccc3)cn2)c1C"
  Classification: 0
- Compound: "O=c1onc(-c2ccccc2)c2ccccc12"
  Classification: 0
- Compound: "CCCCCCCC/C=C\\CCCCCCCCOc1cccc(CC(=O)NCC[N+]2(C)CCOCC2)c1"
  Classification: 0
- Compound: "O=c1c2c(=NCCN3CCCC3)cc3c(=O)n(CCCN4CCOCC4)c(=O)c4ccc(c(O)n1CCCN1CCOCC1)c2c4-3"
  Classification: 1
- Compound: "O=c1[nH]c(=O)n(Cc2ccc(F)cc2)cc1F"
  Classification: 0
- Compound: "COc1c(O)c2c3c(c1OC)-c1ccccc1CC3N(S(=O)(=O)c1ccc(C)cc1)CC2 (stereo not drawn)"
  Classification: 0
- Compound: "O=C(COc1cccc(/C=C2\\COc3ccccc3C2=O)c1)c1ccccc1"
  Classification: 0
- Compound: "COc1cc(C(=O)N(C(C)C)C2CCCCC2)cc(OC)c1OC"
  Classification: 0
- Compound: "COc1cc(/C=C/C(=O)C(=Cc2ccc(F)c(F)c2)C(=O)/C=C/c2ccc(O)c(OC)c2)ccc1O"
  Classification: 0
- Compound: "Clc1ccccc1Nc1ccc2nnc(-c3ccncc3)n2n1"
  Classification: 0
- Compound: "COc1cc(/C=C/C(=O)C2=C(/C=C/c3ccc(O)c(OC)c3)NC(=O)NC2c2ccc(O)c(OC)c2)ccc1O (stereo not drawn)"
  Classification: 0
- Compound: "Nc1nc2c(s1)CCc1c-2c(Br)n(Cc2ccccc2)c1Br"
  Classification: 0
- Compound: "O=C1CC(c2ccsc2)c2snc(-c3ccc(Cl)cc3)c2N1 (stereo not drawn)"
  Classification: 1
- Compound: "O=C1CCC(N2C(=O)c3cccc(NCCOCCOCCNC(=O)c4cc5c(o4)C(=O)c4ccccc4C5=O)c3C2=O)C(=O)N1 (stereo not drawn)"
  Classification: 1
- Compound: "COc1ccc(NC(=O)COc2ccccc2)c(C(N)=O)c1"
  Classification: 0
- Compound: "COc1ncc(F)c(OC)n1"
  Classification: 0
- Compound: "O=C(CCc1nnc2sc(/C=C\\c3ccccc3)nn12)c1nc2ccccc2[nH]1"
  Classification: 0
- Compound: "Cc1ccc(-c2nnc(COc3ccc(-c4nnc(N)s4)cc3)o2)cc1"
  Classification: 0
- Compound: "CCCCC(CCCC)(S(=O)(=O)CC)S(=O)(=O)CC"
  Classification: 0
- Compound: "Cc1nn(-c2ccccc2)c2nc3nc4c(c(N)c3c(-c3ccc(Cl)cc3)c12)CCC4"
  Classification: 0
- Compound: "CCCCCCCCCCCCCCNc1nc(CO)ncc1-c1ccc(C(F)(F)F)cc1"
  Classification: 0
- Compound: "Cc1ccc2nc(NC(=O)CSC(=S)N3CCN(C)CC3)sc2c1"
  Classification: 0
